# Test system: Pseudomonas aeruginosa 39324
# measurement-protocol: Determination of MIC against bacteria (Table 1), P. aeruginosa 39324 (cystic fibrosis isolate)
# Format: cell-based
# cond: Pseudomonas aeruginosa, 39324, 24 h, read-out: minimum inhibitory concentration (MIC), P. aeruginosa 39324
readout: MIC (µg/mL)

C[C@H](CCC(=O)NCCCNCCCCNCCCN)[C@H]1CC[C@H]2[C@@H]3CC[C@@H]4C[C@H](O)CC[C@]4(C)[C@H]3C[C@H](O)[C@]12C [Compound A]; 25
C[C@H](CCC(=O)NCCCNCCCCNCCCN)[C@H]1CC[C@H]2[C@@H]3[C@H](O)C[C@@H]4C[C@H](O)CC[C@]4(C)[C@H]3C[C@H](O)[C@]12C [Compound B]; 100

====

# System: Pseudomonas aeruginosa 39324
# measurement-protocol: Determination of MIC against bacteria (Table 1), P. aeruginosa 39324 (cystic fibrosis isolate)
# Type: cell-based
# cond: Pseudomonas aeruginosa, 39324; CAMHB, 24 h at 37° C.; tested from 1.56 to 200 μg per mL; read-out: minimum inhibitory concentration (MIC), P. aeruginosa 39324
readout: MIC (µg/mL)

C[C@H](CCC(=O)NCCNCCNCCNCCN)[C@H]1CC[C@H]2[C@@H]3[C@H](O)C[C@@H]4C[C@H](O)CC[C@]4(C)[C@H]3C[C@H](O)[C@]12C; 37.5
C[C@H](CCC(=O)NCCNCCNCCNCCNCCN)[C@H]1CC[C@H]2[C@@H]3CC[C@@H]4C[C@H](O)CC[C@]4(C)[C@H]3CC[C@]12C; 200

====

Item-by-item account of MIC
# Test system: Pseudomonas aeruginosa 39324
# measurement-protocol: Determination of MIC against bacteria (Table 1), P. aeruginosa 39324 (cystic fibrosis isolate)
# Format: cell-based
# cond: Pseudomonas aeruginosa, 39324; CAMHB, 24 h at 37° C.; tested from 1.56 to 200 μg per mL; read-out: minimum inhibitory concentration (MIC), P. aeruginosa 39324
readout: MIC

C[C@H](CCC(=O)NCCNCCNCCNCCN)[C@H]1CC[C@H]2[C@@H]3CC[C@@H]4C[C@H](O)CC[C@]4(C)[C@H]3C[C@H](O)[C@]12C [Compound F]; 100 µg/mL
NCCCNCCCCNCCCN [spermine, reference compound]; > 150 µg/mL
C[C@H](CCC(=O)NCCNCCNCCNCCN)[C@H]1CC[C@H]2[C@@H]3[C@H](O)C[C@@H]4C[C@H](O)CC[C@]4(C)[C@H]3CC[C@]12C [Compound I]; 50 µg/mL
C[C@H](CCC(=O)NCCNCCNCCNCCNCCN)[C@H]1CC[C@H]2[C@@H]3CC[C@@H]4C[C@H](O)CC[C@]4(C)[C@H]3C[C@H](O)[C@]12C [Compound G]; 50 to 100 µg/mL
C[C@H](CCC(=O)NCCNCCNCCNCCNCCN)[C@H]1CC[C@H]2[C@@H]3[C@H](O)C[C@@H]4C[C@H](O)CC[C@]4(C)[C@H]3C[C@H](O)[C@]12C [Compound K]; 75 µg/mL
NCCNCCNCCNCCN [tetraethylenepentamine, reference compound]; > 150 µg/mL

====

Listed here are compounds together with their documented MIC.
# Tested on: Pseudomonas aeruginosa 39324
# measurement-protocol: Determination of MIC against bacteria (Table 1), P. aeruginosa 39324 (cystic fibrosis isolate)
# Type: cell-based
# cond: Pseudomonas aeruginosa, 39324, 24 h, read-out: minimum inhibitory concentration (MIC), P. aeruginosa 39324
Where a name gives a salt, the structure may show the parent alone.
readout: MIC

C[C@H](CCC(=O)NCCCNCCCCNCCCN)[C@H]1CC[C@H]2[C@@H]3[C@H](O[C@H]4O[C@H](CO)[C@@H](O)[C@H](O)[C@H]4O)C[C@@H]4C[C@H](O)CC[C@]4(C)[C@H]3CC[C@]12C; 12.5 µg/mL
C[C@H](CCC(=O)O)[C@H]1CC[C@H]2[C@@H]3CC[C@@H]4C[C@H](O)CC[C@]4(C)[C@H]3C[C@H](O)[C@]12C [deoxycholic acid sodium salt, reference compound]; > 200 µg/mL
C[C@H](CCC(=O)NCCCNCCCCNCCCN)[C@H]1CC[C@H]2[C@@H]3[C@H](O)C[C@@H]4C[C@H](O)CC[C@]4(C)[C@H]3CC[C@]12C; 50 to 100 µg/mL

====

# System: Escherichia coli strain 25922
# measurement-protocol: Determination of MIC against bacteria (Table 1), E. coli 25922
# Assay type: cell-based
# cond: Escherichia coli, 25922; CAMHB, 24 h at 37° C.; tested from 1.56 to 200 μg per mL; read-out: minimum inhibitory concentration (MIC), E. coli 25922
Structures can show the parent of a compound that is named as a salt.
readout: MIC

C[C@H](CCC(=O)NCCNCCNCCNCCN)[C@H]1CC[C@H]2[C@@H]3[C@H](O)C[C@@H]4C[C@H](O)CC[C@]4(C)[C@H]3CC[C@]12C; 25 µg/mL
NCCNCCNCCNCCN [tetraethylenepentamine, reference compound]; > 200 µg/mL
C[C@H](CCC(=O)O)[C@H]1CC[C@H]2[C@@H]3CC[C@@H]4C[C@H](O)CC[C@]4(C)[C@H]3C[C@H](O)[C@]12C [deoxycholic acid sodium salt, reference compound]; > 200 µg/mL
C[C@H](CCC(=O)NCCNCCNCCNCCNCCN)[C@H]1CC[C@H]2[C@@H]3CC[C@@H]4C[C@H](O)CC[C@]4(C)[C@H]3CC[C@]12C; > 200 µg/mL
C[C@H](CCC(=O)NCCNCCNCCNCCNCCN)[C@H]1CC[C@H]2[C@@H]3CC[C@@H]4C[C@H](O)CC[C@]4(C)[C@H]3C[C@H](O)[C@]12C; 100 µg/mL
NCCCNCCCCNCCCN [spermine, reference compound]; > 200 µg/mL

====

# Tested on: Escherichia coli strain 25922
# measurement-protocol: Determination of MIC against bacteria (Table 1), E. coli 25922
# Type: cell-based
# cond: Escherichia coli, 25922; CAMHB, 24 h at 37° C.; tested from 1.56 to 200 μg per mL; read-out: minimum inhibitory concentration (MIC), E. coli 25922
readout: MIC

C[C@H](CCC(=O)NCCNCCNCCNCCNCCN)[C@H]1CC[C@H]2[C@@H]3[C@H](O[C@H]4O[C@H](CO)[C@@H](O)[C@H](O)[C@H]4O)C[C@@H]4C[C@H](O)CC[C@]4(C)[C@H]3C[C@H](O[C@H]3O[C@H](CO)[C@@H](O)[C@H](O)[C@H]3O)[C@]12C [Compound L]; > 200 µg/mL
C[C@H](CCC(=O)NCCNCCNCCNCCNCCN)[C@H]1CC[C@H]2[C@@H]3[C@H](O)C[C@@H]4C[C@H](O)CC[C@]4(C)[C@H]3C[C@H](O)[C@]12C [Compound K]; 75 µg/mL
C[C@H](CCC(=O)NCCNCCNCCNCCN)[C@H]1CC[C@H]2[C@@H]3[C@H](O)C[C@@H]4C[C@H](O)CC[C@]4(C)[C@H]3C[C@H](O)[C@]12C [Compound J]; 75 µg/mL
C[C@H](CCC(=O)NCCNCCNCCNCCN)[C@H]1CC[C@H]2[C@@H]3CC[C@@H]4C[C@H](O)CC[C@]4(C)[C@H]3C[C@H](O)[C@]12C [Compound F]; 100 µg/mL
C[C@H](CCC(=O)NCCNCCNCCNCCN)[C@H]1CC[C@H]2[C@@H]3[C@H](O[C@H]4O[C@H](CO)[C@@H](O)[C@H](O)[C@H]4O)C[C@@H]4C[C@H](O)CC[C@]4(C)[C@H]3C[C@H](O[C@H]3O[C@H](CO)[C@@H](O)[C@H](O)[C@H]3O)[C@]12C [Compound M]; > 200 µg/mL
